Each recorded value in this set is attributed to PubChem BioAssay (NCI).

system: HCT-116 colon; test: NCI-60 one-dose screen, 48 h; settings: 10 µM unless noted
The panel holds about 83,000 compounds, 20% with a hit somewhere; the sample as a whole holds those more often. Calls of active or inactive are those of the source. The calls were made as follows: active = growth percent below 10; inactive = the rest.
Result category, one only: TRUE = active, FALSE = inactive

Request: Called result for CC(=O)O[C@H]1CC[C@]2(C)[C@H]3C(=O)C=C4[C@@H]5C[C@](C)(C(=O)N6CCCNCC6)CC[C@]5(C)CC[C@@]4(C)[C@]3(C)CC[C@H]2C1(C)C
Response: TRUE

Request: Called result for Cc1ccc(NC2CC(=O)N(c3c(C)cc(C)cc3C)C2=O)c(C)c1 (stereo not drawn)
Response: FALSE

Request: Called result for Cc1cccc2c1NC(=O)[C@@]21[C@H](C(=O)c2ccccc2)[C@]2(C(=O)Nc3ccccc32)[C@H]2CCCN21
Response: TRUE

Request: Called result for Cc1ccsc1-c1ccc2c(c1)COC2(CCCN(C)C)c1ccc(F)cc1 (stereo not drawn)
Response: FALSE

Request: Called result for COC(=O)C(N)CSC(c1ccccc1)(c1ccccc1)c1ccccc1 (stereo not drawn)
Response: FALSE

Request: Called result for COc1ccc(OCC(CO)N2CCN(c3ccccc3)CC2)cc1 (stereo not drawn)
Response: FALSE

Request: Called result for Cc1ccc(-c2nc([P+](c3ccccc3)(c3ccccc3)c3ccccc3)c(N3C[C@H]4C[C@H](C3)c3cccc(=O)n3C4)o2)cc1
Response: FALSE

Request: Called result for C[C@@H]1CCCCCCCCC[C@H](O)C(=O)C[C@@H](SC[C@@H](O)C(=O)O)C(=O)O1
Response: FALSE

---

system: T-47D breast; assay: NCI-60 one-dose screen, 48 h; settings: 10 µM unless noted
This is part of a sample that, as a whole, favours compounds with a hit. Of some 83,000 tested, about 20% had one in any assay. Calls of active or inactive are those of the source. How the source made its calls: active means growth percent below 10; inactive means the rest.
Result category, one only: true (1) (active), false (0) (inactive)

A selection of reference data follows.
| compound | discrete_label |
| --- | --- |
| C=C(C)[C@@H]1CC[C@]2(C)[C@H](CC=C3[C@@H]4CC(C)(C)CC[C@]4(C=O)CC[C@]32C)[C@@]1(C)CCCN | false (0) |
| CC1(C)CC[C@]2(C(=O)Nc3ccccn3)CC[C@]3(C)C(=CC[C@@H]4[C@@]5(C)C/C(=C/c6ccncc6)C(=O)C(C)(C)[C@@H]5CC[C@]43C)[C@@H]2C1 | false (0) |
| CC/C(=N/NC(N)=O)c1ccccc1 | false (0) |

Then this compound:
Request: Called result for COc1cc2c(cc1-c1c(C)noc1C)ncc1nc(C3CCC(F)(F)CC3)n([C@@H](C)COC(F)F)c12
Response: false (0)

---

Measured growth, listed per entry.
Test system: NCI-H322M lung
Assay: NCI-60 one-dose screen, 48 h (100 = growth as untreated, 0 = no growth, -100 = all killed)
Details: 10 µM unless noted
Description: Growth inhibition of the NCI-H322M human Non-Small Cell Lung tumor cell line is measured as a screen for anti-cancer activity. Cells are grown in 96 well plates and exposed to the test compound for 48 hours. Compounds are tested at a single concentration, which is 10^-5 M for most compounds. The reported endpoint is percent growth (GI% or GIPRCNT), where numbers from 0 - 100% represent growth inhibition, and numbers from -100% - 0 represent cell death. […]
About 83,000 compounds went through this panel and 20% of them were active in at least one assay; those are over-represented in the sample as a whole.
# value in %; strip the unit string

Below, each entry is followed by its recorded growth result.
| smiles_input | system_under_test | unit_of_measurement | val |
| --- | --- | --- | --- |
| Nc1nc2c3ccncc3cc(-c3cccc(Cl)c3)c2c2cnccc12 | NCI-H322M lung | % | 70.4 |
| O=C(/C(=C(\C(=O)c1ccccc1)c1ccccc1)c1ccccc1)c1ccccc1 | NCI-H322M lung | % | 76 |
| O=c1c(CNc2ccc(S(=O)(=O)Nc3ncccn3)cc2)coc2ccccc12 | NCI-H322M lung | % | 97.1 |

In the following, a different molecule is considered.
Request: Suppose we examine the molecule CCOc1ccc(NC(=O)c2ccoc2COc2ccccc2)cc1 ; what growth value has been reported?
Response: 99.7

---

system: TK-10 renal; test: NCI-60 one-dose screen, 48 h (100 = growth as untreated, 0 = no growth, -100 = all killed); conditions: 10 µM unless noted
The panel holds about 83,000 compounds, 20% with a hit somewhere; the sample as a whole holds those more often. Activity calls are given as the source filed them. Rule for the calls: active = growth percent below 10; inactive = the rest.
endpoint: growth

| compound | growth |
| --- | --- |
| CC1(C)[C@@H](O)CC[C@]2(C)[C@H]3CC[C@@H]4[C@H]5[C@H](C(=O)/C=C/c6ccc(C(F)(F)F)cc6)CC[C@]5(CO)CC[C@@]4(C)[C@]3(C)CC[C@@H]12 | 105% (inactive) |
| Cc1ccc2oc(=O)cc(-c3sc(N4CCCCC4)nc3-c3ccccc3)c2c1 | 161% (inactive) |
| COc1cccc(-c2nn(-c3ccccc3)cc2-c2ccnc(NCCCNS(=O)(=O)c3ccc(Br)cc3)c2)c1 | 55.7% (inactive) |
| Fc1ccc2c(c1)c(-c1nc(-c3c[nH]c4ncccc34)cs1)cn2CCCN1CCCCC1 | 107% (inactive) |
| CCCC(=O)N1CCCCC1CC (centres undefined) | 113% (inactive) |
| COc1ccc(-c2cc(-c3cccs3)n(N=O)c(=O)c2C#N)cc1 | 114% (inactive) |

Request: Suppose we examine the compound COc1cnc2c(c1)C(=O)c1c-2n(CCCNC2=NCCS2)c(=O)c2cc([N+](=O)[O-])ccc12 ; what growth value has been reported?
Response: -89.2% (active)

Request: Suppose we examine the compound N=c1ccc2nc3c(cc(N)c4ccccc43)oc-2c1 ; what growth value has been reported?
Response: -29.7% (active)

Request: Suppose we examine the compound O=C(Nc1ccc(/C=C2\SC(=O)N(Cc3ccc(OC(F)(F)F)cc3)C2=O)cc1)c1ccc(Cl)c([N+](=O)[O-])c1 ; what growth value has been reported?
Response: 98.5% (inactive)

---

system: OVCAR-5 ovarian; experiment: NCI-60 one-dose screen, 48 h (100 = growth as untreated, 0 = no growth, -100 = all killed); settings: 10 µM unless noted
Compounds without any hit were thinned out: in the full panel of roughly 83,000, 20% have a hit. Activity calls are given as the source filed them. Rule for the calls: active = growth percent below 10; inactive = the rest.
endpoint: growth

| compound | endpoint | val |
| --- | --- | --- |
| COc1cccc(-c2nn(-c3ccccc3)cc2-c2ccnc(NCCNS(=O)(=O)c3ccccc3)c2)c1 | growth | 72.3% (inactive) |
| CC1(n2nnnc2N2CCCN(c3ncccc3N)CC2)CCC1 | growth | 98.7% (inactive) |

Request: Suppose we examine the compound N=C(N)N=Nc1ccc(O)cc1 ; what growth value has been reported?
Response: 116% [100 µM] (inactive)

Request: Suppose we examine the compound COc1cc2c(cc1-c1c(C)noc1C)ncc1nc(C3CC3)n([C@H](C)COC(F)F)c12 ; what growth value has been reported?
Response: 84.2% (inactive)

Request: Suppose we examine the compound COc1cc(NC(C)CN(CC(C)C)C(C)C)c2ncccc2c1 (stereo unspecified) ; what growth value has been reported?
Response: 109% (inactive)

Request: Suppose we examine the compound N=C(N)c1ccc(S(N)(=O)=O)cc1 ; what growth value has been reported?
Response: 88.2% (inactive)

---

Measured growth, listed per entry.
system: SW-620 colon; experiment: NCI-60 one-dose screen, 48 h (100 = growth as untreated, 0 = no growth, -100 = all killed); conditions: 10 µM unless noted
This is part of a sample that, as a whole, favours compounds with a hit. Of some 83,000 tested, about 20% had one in any assay. Activity calls are given as the source filed them. Rule for the calls: active = growth percent below 10; inactive = the rest.

Below, each entry is followed by its recorded growth result.
| smiles_input | system_under_test | growth |
| --- | --- | --- |
| C=C1C(=O)O[C@H]2[C@H]1CC/C(COC(=O)NCc1cc3ccccc3[nH]1)=C\CC[C@@]1(C)O[C@@H]21 | SW-620 colon | -37.8% (active) |
| Cc1cccc(C)c1NC(=O)CSC(=S)N1CCCCC1 | SW-620 colon | 103% (inactive) |
| Cc1ccc(N(CC(=O)Nc2ccc(S(=O)(=O)N3CCC(N4CCCC4)CC3)cc2)S(=O)(=O)c2ccc(Cl)cc2)cc1 | SW-620 colon | -46.8% (active) |

Request: Param readout = growth; param system = SW-620 colon; param query = Clc1ccc2[nH]cc(-c3nc(-c4c[nH]c5ncccc45)cs3)c2c1 ; response: value
Response: 18.1% (inactive)

Request: Param readout = growth; param system = SW-620 colon; param query = COC(=O)[C@]12CC[C@@H](C)[C@H](C)[C@@H]1C1=CC[C@@H]3[C@@]4(C)CC(=O)[C@H](OC(=O)c5ccco5)[C@@]5(C)COC(=C45)C[C@@]3(C)[C@]1(C)CC2 ; response: value
Response: 31.2% (inactive)

Request: Param readout = growth; param system = SW-620 colon; param query = NS(=O)(=O)c1ccc(CCNC(=O)/C=C/c2ccc(Cl)cc2)cc1 ; response: value
Response: 102% (inactive)

Request: Param readout = growth; param system = SW-620 colon; param query = Cn1nc(-c2ccccc2)c2c(-c3ccccc3)onc2c1=O ; response: value
Response: 28.9% (inactive)

Request: Param readout = growth; param system = SW-620 colon; param query = Nc1ccc(Br)cn1 ; response: value
Response: 104% (inactive)

Request: Param readout = growth; param system = SW-620 colon; param query = CN(C)c1ccc(C(=O)c2ccc(N(C)C)c(N)c2)cc1N ; response: value
Response: 10.2% (inactive)
